- System: Huh7 cells
- Assay protocol: LD content in Huh7 cells pre-treated with insulin, Oil-Red-O staining, absorbance OD 540 nm
- Format: cell-based
- Experimental context: Homo sapiens, Huh-7, Huh7 cells, procedure of Example 3; read-out: LD content inhibition (EC50)
pEC50 listing for selected molecules.
Hey, just a heads up that pEC50 is the negative log base 10 of the concentration in molar.

**Query** Return reported pEC50; argument: "Nc1c(C(=O)Nc2ccccc2)cc(-c2ccc(Cl)cc2)cc1-c1ccc(S(N)(=O)=O)cc1"
**Result** 6.10

---

- System: SREBP-2
- Assay protocol: SREBP-2 expression in cultured primary human hepatocytes
- Assay type: cell-based
- Experimental context: Homo sapiens, Hepatocyte, procedure of Example 6, read-out: SREBP-2 mRNA inhibition (EC50)
Parameter: EC50. Scope: all listed entries.
Write it as a number; the unit µM goes unstated.

{"Smiles structure": "NC(=O)c1cc(Nc2cccc(C(=O)O)c2)cc(-c2ccc(S(N)(=O)=O)cc2)c1N", "Recorded endpoint": "EC50", "Recorded measurement": 4.32}
{"Smiles structure": "CCOC(=O)/C=C/c1cc(C(N)=O)c(N)c(-c2ccc(S(N)(=O)=O)cc2)c1", "Recorded endpoint": "EC50", "Recorded measurement": 5.99}
{"Smiles structure": "NC(=O)c1cc(-c2ccc(Br)cc2)cc(Nc2ccc(S(N)(=O)=O)cc2)c1N", "Recorded endpoint": "EC50", "Recorded measurement": 3.39}
{"Smiles structure": "NC(=O)c1cc(-c2ccc(Cl)cc2)cc(OCCc2ccc(S(N)(=O)=O)cc2)c1N", "Recorded endpoint": "EC50", "Recorded measurement": 2.37}
{"Smiles structure": "NC(=O)c1cc(-c2ccc(Cl)cc2)cc(-c2ccc(S(N)(=O)=O)cc2)c1NC(=O)CO", "Recorded endpoint": "EC50", "Recorded measurement": 2.3}

**Query** Which EC50 reading was recorded for the compound "Nc1c(C(=O)NCCO)cc(-c2ccc(Cl)cc2)cc1-c1ccc(S(N)(=O)=O)cc1" ?
**Result** 12.5

**Query** Returns the measured EC50 for the input compound. Input: "NC(=O)c1cc(/C=C/c2cccc(Br)c2)cc(-c2ccc(S(N)(=O)=O)cc2)c1N"
**Result** 3.08

**Query** Entry under review: "CC(=O)Nc1ccc(/C=C/c2cc(C(N)=O)c(N)c(-c3ccc(S(N)(=O)=O)cc3)c2)cc1" . Reported EC50?
**Result** 6.45

---

Listed below: EC50 values for each entry.
- Tested on: SREBP-2
- Assay protocol: SREBP-2 expression in cultured primary human hepatocytes
- Format: cell-based
- Experimental context: Homo sapiens, Hepatocyte, procedure of Example 6, read-out: SREBP-2 mRNA inhibition (EC50)
Number in µM, nothing else.

Some compounds with recorded EC50:
{"Smiles structure": "CC(=O)Nc1ccc(-c2cc(-c3ccc(Cl)cc3)cc(C(N)=O)c2N)cc1", "Target system": "SREBP-2", "Recorded endpoint": "EC50", "Recorded measurement": 9.69}
{"Smiles structure": "NC(=O)c1cc(C#CCOC(=O)c2ccc(O)cc2)cc(-c2ccc(S(N)(=O)=O)cc2)c1N", "Target system": "SREBP-2", "Recorded endpoint": "EC50", "Recorded measurement": 3.21}
{"Smiles structure": "NC(=O)c1cc(-c2ccc(Br)cc2)cc(-c2ccc(S(N)(=O)=O)cc2)c1NC(=O)CCO", "Target system": "SREBP-2", "Recorded endpoint": "EC50", "Recorded measurement": 2.88}
{"Smiles structure": "NCC(=O)Nc1c(C(N)=O)cc(-c2ccc(Br)cc2)cc1-c1ccc(S(N)(=O)=O)cc1", "Target system": "SREBP-2", "Recorded endpoint": "EC50", "Recorded measurement": 5.69}

**Query** Fill in: EC50 of "NC(=O)c1cc(C#CCOC(=O)c2ccccc2F)cc(-c2ccc(S(N)(=O)=O)cc2)c1N" is ___
**Result** 4.88

**Query** Please give the measured EC50 for this compound: "Nc1c(C(=O)Nc2cccc(F)c2)cc(-c2ccc(Br)cc2)cc1-c1ccc(S(N)(=O)=O)cc1"
**Result** 8.6

**Query** Any idea what its EC50 is? The compound is "NC(=O)c1cc(-c2ccc(Cl)cc2)cc(-c2ccc(NC(=O)CO)cc2)c1N"
**Result** 3.53

**Query** So what does the record say about EC50 for "CCC(=O)Oc1ccc(-c2cc(C(N)=O)c(N)c(-c3ccc(S(N)(=O)=O)cc3)c2)cc1" ?
**Result** 3.9
